Data credit: patent EP3800188A1

biological target: human IRAK4 (Homo sapiens)
Sequence (Q9NWZ3 whole entry): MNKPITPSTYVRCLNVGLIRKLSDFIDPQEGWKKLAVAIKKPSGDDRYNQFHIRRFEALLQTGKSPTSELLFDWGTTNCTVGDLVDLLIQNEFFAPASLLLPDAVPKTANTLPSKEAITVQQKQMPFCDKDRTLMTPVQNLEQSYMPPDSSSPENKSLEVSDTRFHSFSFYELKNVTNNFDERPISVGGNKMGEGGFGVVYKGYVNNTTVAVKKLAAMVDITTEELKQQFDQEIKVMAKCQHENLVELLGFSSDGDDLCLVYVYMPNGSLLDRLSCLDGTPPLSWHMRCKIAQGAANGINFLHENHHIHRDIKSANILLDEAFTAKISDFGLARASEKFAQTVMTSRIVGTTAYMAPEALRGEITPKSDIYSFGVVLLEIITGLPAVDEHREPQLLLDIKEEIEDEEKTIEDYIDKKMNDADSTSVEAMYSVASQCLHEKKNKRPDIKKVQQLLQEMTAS
Measure Name: pIC50
The meaning of pIC50 here: minus log10 of the concentration in molar units.

Consider the worked cases shown below.
O=S1(=O)CCC(Nc2nc(N3C[C@H](O)[C@@H](F)C3)c3cnn(-c4cccc(OC(F)F)c4)c3n2)CC1; 7.33
CC(C)(O)C1CCN(c2nc(N[C@H]3C[C@@]4(CCN4)C3)nc3c2cnn3-c2cccc(C(F)F)c2)CC1; 8.85

Incoming: Report value only: pIC50, human IRAK4 (Homo sapiens), O[C@H]1C[C@H](Nc2nc(N3CC(N4CCOCC4)C3)c3cnn(-c4cccc(C(F)(F)F)c4)c3n2)C1
Outgoing: 8.32

Incoming: # lookup: human IRAK4 (Homo sapiens) pIC50, key = CS(=O)(=O)[C@H]1C[C@H](Nc2nc(N3C[C@@H](O)[C@H](F)C3)c3cnn(-c4cccc(C(F)(F)F)c4)c3n2)C1
Outgoing: 8.44
